This section presents binders with their documented IC50 (read off the curve) values.
Assayed system: T1, human PD-L1 expressed on cells (human, UniProt Q9NZQ7 19-290)
T1 construct: whole, on cells; also called hPD-L1 expressed on HCC827; hPD-L1 on MC38/hPD-L1 cells
T1 sequence (Q9NZQ7 19-290): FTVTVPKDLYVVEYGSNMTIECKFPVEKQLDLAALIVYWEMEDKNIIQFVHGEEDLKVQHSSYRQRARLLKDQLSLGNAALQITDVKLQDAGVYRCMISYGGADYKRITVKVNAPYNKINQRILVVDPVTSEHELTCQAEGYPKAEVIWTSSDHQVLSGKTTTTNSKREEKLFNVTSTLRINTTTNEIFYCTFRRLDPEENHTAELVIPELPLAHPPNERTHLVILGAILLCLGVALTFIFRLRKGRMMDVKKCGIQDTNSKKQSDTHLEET
Assay comment: blocking FACS on HCC827 cells; blocked ligand: biotinylated hPD-1-N297A
Measured quantity: IC50 (read off the curve)

- 23F11-H4L4 (produced in CHO cells) (antibody, V domains shown, also called 23F11-H4L4 (CHO cell derived); 23F11 H4L4 CHO) VH: QVQLVQSGAEVKKPGASVKLSCKASGYIFTTYWMHWVKQRPGQGLEWIGMIQPNSGGTKYNEKFKKKATLTVDKSISTAYMELSRLTSDDTAVYYCARGAGTVDYFDYWGQGSTLTVSS VL: DIVLTQSPASLAVSVGQRATITCRASESVDIYGNSFMHWYQQKPGQPPKLLIYRASNLESGIPARFSGSGSRTDFTLTINPVEAQDTATYYCQQSTEDPYTFGGGTKLEIK: ~0.06 µg/mL
- 4B6-H3L4 (antibody, V domains shown, produced in 293 cells; light chain constant region not described; also called humanized 4B6 H3L4) VH: QVQLVQSGAEVVKPGASVKISCKASGYVFTDYYMNWVKQAPGQGLEWIGDINPNNGGTSYNQKFQGRATVTVDKSTRTAYMELSRLRSDDTAVYYCVKWGDGPFAYWGQGTLVTVSS VL: DIQMTQSPSSLSASVGDRVTITCQASQNVGAAVAWYQQKPGKAPKLLIYSASNLYTGVPSRFSGSGSGTDFTLTISSLQPEDIATYFCQQYSNYPTFGSGTKLGIK: ~0.02 µg/mL
- 23A11-H3L5 (antibody, V domains shown, Human IgG1 constant region with N297A; biotinylated in the alanine-scan ELISA; also called 23A11-H3L5-bio; humanized 23A11) VH: LVQLVQSGAEVKKPGASVKLSCKASGYIFTTYWIHWVKQRPGQGLEWIGMIQPNSGGTKYNDQFKNRATLTVDKSISTAYMELSRLTSDDTAVYYCARGAGTVDYFDYWGQGTTLSISS VL: DIVLTQSPASLAVSVGQRATITCRASESVDIYGNSFMHWYQQKPGQAPKLLIYRASNLESGIPARFSGSGSRTDFTLTINPVEANDTATYYCQQSNDDPYTFGGGTKLETK: ~0.05 µg/mL
- 23F11-H4L4 (antibody, V domains shown, Human IgG1 constant region with N297A; biotinylated in the alanine-scan ELISA; also called 23F11-H4L4-bio; humanized 23F11) VH: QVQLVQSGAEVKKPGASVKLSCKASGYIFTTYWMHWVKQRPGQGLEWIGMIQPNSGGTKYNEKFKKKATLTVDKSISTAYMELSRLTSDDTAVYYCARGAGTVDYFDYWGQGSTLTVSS VL: DIVLTQSPASLAVSVGQRATITCRASESVDIYGNSFMHWYQQKPGQPPKLLIYRASNLESGIPARFSGSGSRTDFTLTINPVEANDTATYYCQQSTEDPYTFGGGTKLEIK: ~0.03 µg/mL
